Molecular target: system Xc^− (Homo sapiens, UniProt Q9UPY5)
Sequence (Q9UPY5 1-501): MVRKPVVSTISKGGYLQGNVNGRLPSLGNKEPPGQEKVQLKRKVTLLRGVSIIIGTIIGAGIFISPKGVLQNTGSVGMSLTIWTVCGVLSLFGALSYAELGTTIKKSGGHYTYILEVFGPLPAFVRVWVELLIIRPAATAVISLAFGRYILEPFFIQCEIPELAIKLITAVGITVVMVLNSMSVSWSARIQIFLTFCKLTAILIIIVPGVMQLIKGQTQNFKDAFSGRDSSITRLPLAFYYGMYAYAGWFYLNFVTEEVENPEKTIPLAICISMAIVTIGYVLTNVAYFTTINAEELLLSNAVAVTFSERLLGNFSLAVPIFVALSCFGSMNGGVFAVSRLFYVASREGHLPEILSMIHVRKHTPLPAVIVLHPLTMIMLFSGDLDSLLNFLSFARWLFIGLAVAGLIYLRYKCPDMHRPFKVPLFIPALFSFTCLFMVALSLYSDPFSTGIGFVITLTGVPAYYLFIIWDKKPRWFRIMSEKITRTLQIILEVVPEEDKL
Sequence (P08195 1-529 partner): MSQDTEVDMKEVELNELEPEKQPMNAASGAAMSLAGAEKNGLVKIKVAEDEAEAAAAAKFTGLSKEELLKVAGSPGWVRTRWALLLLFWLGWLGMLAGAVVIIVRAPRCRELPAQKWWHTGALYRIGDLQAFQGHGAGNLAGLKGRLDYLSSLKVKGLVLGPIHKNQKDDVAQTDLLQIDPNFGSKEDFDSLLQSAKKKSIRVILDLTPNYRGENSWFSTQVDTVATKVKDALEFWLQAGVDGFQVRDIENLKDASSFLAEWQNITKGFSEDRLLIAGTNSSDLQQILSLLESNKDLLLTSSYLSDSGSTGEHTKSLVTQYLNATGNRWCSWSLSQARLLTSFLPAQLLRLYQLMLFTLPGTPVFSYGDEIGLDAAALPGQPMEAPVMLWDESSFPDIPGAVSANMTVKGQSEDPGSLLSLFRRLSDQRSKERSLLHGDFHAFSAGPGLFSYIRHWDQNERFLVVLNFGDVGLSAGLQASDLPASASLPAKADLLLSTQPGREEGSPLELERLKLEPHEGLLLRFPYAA
Assay: Cystine-induced glutamate release assay
Format: cell-based
Set-up: endogenous in cells; host or cells: H4 cells
Details: H4 cells, sodium-free HEPES buffer, 50 μM L-Cystine, 2 hours, Amplex Red glutamate readout; read-out: pIC50 Cystine-induced glutamate release assay (converted)
QUANTITY KIND: IC50

In: # value lookup — system system Xc^− (Homo sapiens, UniProt Q9UPY5), readout IC50, item COc1nc(OC(F)F)cc2c1-c1cccnc1C(C)C(=O)N2CC(=O)Nc1ccc(C(F)F)cc1 (single isomer, unassigned)
Out: 15.8 to 39.8 nM

In: // next record Cc1cncc2c1-c1ccccc1CC(=O)N2CC(=O)Nc1ccc(C(F)(F)F)cc1
Out: 39.8 to 100 nM

In: For Cc1cc2c(c(CO)n1)-c1ccccc1CC(=O)N2CC(=O)Nc1ccc(C(F)(F)F)cc1 then?
Out: 100 to 501 nM

In: Param item: CC1C(=O)N(CC(=O)Nc2ccc(Cl)c(F)c2)c2cc(F)nc(OCCO)c2-c2cccnc21 (stereo not shown)
Out: 15.8 to 39.8 nM

In: What about this compound? Cc1cc2c(c(F)n1)-c1cccnc1[C@@H](C)C(=O)N2CC(=O)Nc1ccc(Br)cc1
Out: < 15.8 nM

In: Try this compound too: Cc1cc2c(c(OCCO)n1)-c1cccnc1[C@@H](C)C(=O)N2CC(=O)Nc1ccc(C(F)F)cc1
Out: < 15.8 nM

In: Do the same for Cc1cc2c(cc1C)N(CC(=O)Nc1ccc(C(F)(F)F)cc1)C(=O)Cc1ccncc1-2 please
Out: 100 to 501 nM

In: Would you kindly repeat that for Cc1cc2c(c(F)n1)-c1ccccc1C(C)C(=O)N2CC(=O)Nc1ccc(Cl)c(F)c1 (stereo not shown) ?
Out: < 15.8 nM

In: Request: [2H]C([2H])([2H])C1C(=O)N(CC(=O)Nc2ccc(C(F)(F)F)cc2)c2cc(C)nc(F)c2-c2cccnc21 (stereo not shown)
Out: 39.8 to 100 nM

In: Now this one: COc1nccc2c1-c1cccnc1C(C)C(=O)N2CC(=O)Nc1ccc(C(F)F)cc1 (single isomer, unassigned)
Out: < 15.8 nM

In: Now consider Cc1cc2c(c(Cl)n1)-c1cccnc1C(O)C(=O)N2CC(=O)Nc1ccc(C(F)(F)F)cc1 (stereo not shown) .
Out: 15.8 to 39.8 nM

In: Next record, please: Cc1cc2c(c(C)n1)-c1cc(F)ccc1CC(=O)N2CC(=O)Nc1ccc(C(F)(F)F)cc1
Out: 15.8 to 39.8 nM

In: Can you handle O=C(CN1C(=O)Cc2ncccc2-c2c(F)cncc21)Nc1ccc(C(F)(F)F)cc1 next?
Out: 100 to 501 nM

In: Next up: CC1C(=O)N(CC(=O)Nc2ccc(Cl)c(F)c2)c2ccnc(F)c2-c2cc(F)cnc21 (single isomer, unassigned)
Out: 15.8 to 39.8 nM

In: How about this compound: Cc1ncc2c(n1)C(C)C(=O)N(CC(=O)Nc1ccc(Cl)c(F)c1)c1cc(Cl)cc(F)c1-2 (single isomer, unassigned)
Out: 15.8 to 39.8 nM

In: Repeat with COC1C(=O)N(CC(=O)Nc2ccc(C(F)(F)F)cc2)c2cc(C)nc(Cl)c2-c2cccnc21 (stereo not shown)
Out: 39.8 to 100 nM

In: Now consider Cc1cc2c(c(C)n1)-c1cccc(F)c1CC(=O)N2CC(=O)Nc1ccc(C(F)(F)F)cc1 and answer again.
Out: 15.8 to 39.8 nM

In: Same thing, different compound: CC1C(=O)N(CC(=O)Nc2ccc(C(F)F)cc2)c2cc(N3C[C@H]4C[C@@H](C3)C4(F)F)nc(F)c2-c2cccnc21 (single isomer, unassigned)
Out: 39.8 to 100 nM

In: What about this compound? Cc1cc2c(c(F)n1)-c1ccc(C)nc1[C@@H](C)C(=O)N2CC(=O)Nc1ccc(C(F)(F)F)cc1 (single isomer, unassigned)
Out: 39.8 to 100 nM

In: Try Cc1cc2c(c(C#N)n1)-c1ncccc1CC(=O)N2CC(=O)Nc1ccc(C(F)(F)F)cc1 next.
Out: 39.8 to 100 nM

In: // repeat for COc1cc2c(c(F)n1)-c1cccnc1[C@@H](C)C(=O)N2CC(=O)Nc1ccc(C(F)(F)F)cc1 (single isomer, unassigned) and report
Out: 15.8 to 39.8 nM

In: Also Cc1cc2c(c(=O)n1C)-c1ccccc1C(C)C(=O)N2CC(=O)Nc1ccc(C(F)F)cc1 (single isomer, unassigned) , if possible.
Out: < 15.8 nM

In: Consider next the compound N#Cc1cc2c(cc1F)-c1cccnc1CC(=O)N2CC(=O)Nc1ccc(C(F)(F)F)cc1 in the same way.
Out: 39.8 to 100 nM

In: CC1C(=O)N(CC(=O)Nc2ccc(C(F)F)cc2)c2cc(C3CC3)nc(Cl)c2-c2cccnc21 (stereo not shown) , same question.
Out: 39.8 to 100 nM

In: Same for O=C(CN1C(=O)Cc2ccncc2-c2cnc(Cl)cc21)Nc1ccc(C(F)(F)F)cc1
Out: 100 to 501 nM

====

Biological target: system Xc^− (Homo sapiens, UniProt Q9UPY5)
Sequence (Q9UPY5 1-501): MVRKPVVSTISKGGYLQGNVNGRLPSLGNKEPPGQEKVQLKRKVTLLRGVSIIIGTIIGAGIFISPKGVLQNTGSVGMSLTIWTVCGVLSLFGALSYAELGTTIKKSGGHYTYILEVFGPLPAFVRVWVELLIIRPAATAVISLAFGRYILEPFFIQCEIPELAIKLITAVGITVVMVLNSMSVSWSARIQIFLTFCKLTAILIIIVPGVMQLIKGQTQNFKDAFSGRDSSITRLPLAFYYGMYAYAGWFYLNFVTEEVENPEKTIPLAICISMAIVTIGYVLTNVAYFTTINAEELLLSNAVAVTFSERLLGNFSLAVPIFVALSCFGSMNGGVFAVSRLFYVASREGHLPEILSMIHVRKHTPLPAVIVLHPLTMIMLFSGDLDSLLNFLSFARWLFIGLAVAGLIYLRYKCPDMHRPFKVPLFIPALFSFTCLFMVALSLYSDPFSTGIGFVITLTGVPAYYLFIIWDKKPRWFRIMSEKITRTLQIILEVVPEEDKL
Sequence (P08195 1-529 partner): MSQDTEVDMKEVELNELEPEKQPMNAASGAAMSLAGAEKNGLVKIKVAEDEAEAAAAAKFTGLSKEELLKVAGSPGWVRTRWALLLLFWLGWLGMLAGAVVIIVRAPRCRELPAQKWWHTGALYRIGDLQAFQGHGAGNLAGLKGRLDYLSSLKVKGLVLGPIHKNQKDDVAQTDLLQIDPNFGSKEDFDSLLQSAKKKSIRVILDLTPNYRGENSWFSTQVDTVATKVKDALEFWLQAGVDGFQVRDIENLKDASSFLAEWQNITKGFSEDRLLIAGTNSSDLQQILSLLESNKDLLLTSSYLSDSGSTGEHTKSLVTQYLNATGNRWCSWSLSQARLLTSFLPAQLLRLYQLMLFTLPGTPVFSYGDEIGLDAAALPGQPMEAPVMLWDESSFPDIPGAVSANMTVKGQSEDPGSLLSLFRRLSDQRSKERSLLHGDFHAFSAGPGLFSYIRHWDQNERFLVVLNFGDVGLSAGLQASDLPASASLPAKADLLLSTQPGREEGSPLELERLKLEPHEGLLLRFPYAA
Experiment: [^14C]L-Cystine uptake assay
Format: cell-based
Design: endogenous in cells; host or cells: H4 cells
Conditions: H4 cells, sodium-free HEPES buffer, 0.5 μM L-[14C]Cystine and 4.5 μM L-Cystine, 1 hour at 37° C.; read-out: pIC50 [^14C] L-Cystine uptake assay (converted)
QUANTITY KIND: IC50

In: // query IC50 value for entry Cc1ncc2c(n1)C(C)C(=O)N(CC(=O)Nc1ccc(Cl)c(F)c1)c1cc(Cl)cc(F)c1-2 (single isomer, unassigned)
Out: 15.8 to 39.8 nM

In: Next: CC1C(=O)N(CC(=O)Nc2ccc(Cl)c(F)c2)c2cc(CN3CC(F)(F)C3)ccc2-c2cccnc21 (stereo not shown)
Out: 100 to 501 nM

In: Another compound: CC1C(=O)N(CC(=O)Nc2ccc(C(F)F)cc2)c2cc(N3CC[C@H]3CO)nc(F)c2-c2cccnc21 (stereo partly shown)
Out: 15.8 to 39.8 nM

In: For CC1C(=O)N(CC(=O)Nc2ccc(Cl)c(F)c2)c2ccn(C)c(=O)c2-c2ccccc21 (stereo not shown) then?
Out: 39.8 to 100 nM

Reference source for all entries: patent US20260217708A1
